This collection of values is drawn from paper PMC12040169.

# viability at 28.5 h, 10 µM listing for each entry below
- ASSAY COMMENT: in vitro
- SETUP CONDITIONS: human, hela cells, % viability
Report as a plain number; the unit % is understood.

Answered cases to consult:
* Cc1cc(C)cc(NS(=O)(=O)c2ccc(NC(=O)C(C)Oc3ccc(Cl)cc3Cl)cc2)c1 (stereo not shown) | 108
* COCCc1noc(CC2CCN(c3ccc(C#N)nc3)CC2)n1 | 89.9

Query :: Query viability at 28.5 h, 10 µM for CC(=O)Nc1ccc(S(=O)(=O)Nc2ccc(-c3cn4cccnc4n3)cc2)cc1
Result :: 105

Query :: Query viability at 28.5 h, 10 µM for Cc1c(C(=O)N2CCC(N3CCSCC3)CC2)[nH]c2c(F)cccc12
Result :: 96.8

----------
- ASSAY COMMENT: in vitro
- SETUP CONDITIONS: human, hela cells, % viability
QUANTITY NAME: viability at 28.5 h, 10 µM
Please format your answer as a value with the unit trailing.

Answered cases to consult:
* CC(C)C(=O)N1CC2(CCN(CCS(=O)(=O)c3ccccc3)CC2)c2ccccc21 | 95.4%
* C/C(=N/OCO/N=C(\C)c1cccc([N+](=O)[O-])c1)c1cccc([N+](=O)[O-])c1 | 89%
* COCC1(C(=O)N(C)Cc2nnc(-c3ccccc3)o2)CCC1 | 109%
* CCN(CC)C(=O)CN1CCN(c2nccnc2OCc2ccc(Cl)c(Cl)c2)CC1 [CBK083081T] | 101%
* Nc1c(-c2ccsc2)cnc2ncccc12 | 108%

Query :: Query viability at 28.5 h, 10 µM for Cc1ccc(Cn2cnc3c(cnn3-c3ccc(C)c(C)c3)c2=O)cc1
Result :: 108%

Query :: Query viability at 28.5 h, 10 µM for COC(=O)[C@H]1CCc2ccccc2N1C(=O)c1ccco1
Result :: 84.5%

Query :: Query viability at 28.5 h, 10 µM for Cc1nc2ccccn2c1CC(=O)N1CCCC(c2ccc(Cc3cccc(F)c3)cn2)C1 (stereo not drawn)
Result :: 91.3%

Query :: Query viability at 28.5 h, 10 µM for O=C(C1CCCCC1)N1CC(n2nc(-c3ccccc3)ccc2=O)C1
Result :: 92.8%

----------
- ASSAY COMMENT: in vitro
- SETUP CONDITIONS: human, hela cells, % viability
QUANTITY NAME: viability at 28.5 h, 10 µM (%)
Report as a plain number; the unit % is understood.

Answered cases to consult:
* CC(C)c1nnc(CCC(=O)N2CCC(c3ccccc3)C2)o1 (centres unmarked) | 89.3
* CCOc1ccc(C(=O)NC(=S)Nc2cccc(C(=O)O)c2C)cc1Br | 93.6
* Cc1ccccc1-n1c(SC(C)C)nc2sc3c(c2c1=O)CC(C)(C)OC3 | 91.2

Query :: Query viability at 28.5 h, 10 µM for COc1cc(NC(=O)C2CCCN2)ccc1-n1cccc1 (centres unmarked)
Result :: 85.4

Query :: Query viability at 28.5 h, 10 µM for Cn1c(=O)c2c(ncn2CCCN)n(C)c1=O [CBK267707C]
Result :: 91.8

Query :: Query viability at 28.5 h, 10 µM for S=C1NCCN1c1nnc(-c2cccs2)[nH]1
Result :: 97.3

Query :: Query viability at 28.5 h, 10 µM for CS(=O)(=O)N1CCCC(C(=O)NCc2ccccn2)C1 (centres unmarked)
Result :: 101

----------
- ASSAY COMMENT: in vitro
- SETUP CONDITIONS: human, hela cells, % viability
# viability at 28.5 h, 10 µM listing for each entry below
Report as a plain number; the unit % is understood.

Answered cases to consult:
* Cc1nc(NCCO)c2c3c(sc2n1)CCCC3 [CBK131920] | 90.1
* CC(C)C(=O)N1N=C2CCCCC2C1(O)C(F)(F)F (stereo not shown) [CBK028091] | 93.2
* O=C(Nc1ccc(-c2ccccc2C(F)(F)F)s1)C(F)(F)F [CBK099942] | 96.3
* CCOC(=O)c1ccc(NC(=S)NC(=O)c2ccc(C)c(C)c2)cc1 [CBK264004] | 89.2
* Cn1nc(C(Cc2ccccc2)NC(=O)c2ccco2)c2cccnc21 (stereo not shown) [CBK285223] | 97.1
* CSc1ncc(CNCc2ccc3c(c2)OCO3)c(N)n1 [CBK074563] | 89.6
* CC(=O)Nc1ccc(NC(=O)C2COc3ccccc3O2)cc1C (stereo not shown) [CBK269898] | 99.1
* Cc1ccc(C(=O)C2(O)CCN(CCCC(c3ccc(F)cc3)c3ccc(F)cc3)CC2)cc1 [CBK025221C] | 90.6

Query :: Query viability at 28.5 h, 10 µM for O=C(CSc1ncn(-c2ccccc2)n1)Nc1c(Cl)cccc1Cl [CBK269683]
Result :: 94.7

Query :: Query viability at 28.5 h, 10 µM for O=S(=O)(c1ccc2ccccc2c1)N1CCN(CCCOc2ccccc2Cl)CC1 [CBK267018]
Result :: 106

Query :: Query viability at 28.5 h, 10 µM for CN1CCN(c2ncc(-c3ccc(N4CCOCC4)cc3)n3ccnc23)CC1 [CBK091226]
Result :: 103

Query :: Query viability at 28.5 h, 10 µM for O=C(Nc1cnc2ccccc2c1)OCCc1cccnc1 [CBK200126]
Result :: 93.5

Query :: Query viability at 28.5 h, 10 µM for Cc1csc(CCNCc2c(C(C)C)nn(C)c2N(C)C)n1 [CBK304140]
Result :: 89

----------
- ASSAY COMMENT: in vitro
- SETUP CONDITIONS: human, hela cells, % viability
# viability at 28.5 h, 10 µM listing for each entry below
Report as a plain number; the unit % is understood.

Answered cases to consult:
• COc1cc(F)cc(OC2CCNCC2)c1NC(=O)Cc1cn(C)c2ccccc12 [CBK050245T] = 105
• O=C(Nc1cccc(O)c1)c1ccc(Br)c(S(=O)(=O)N2CCCCC2)c1 = 91.9
• Oc1ccc(-n2cc(-c3ccsc3)nn2)cc1 = 84.6
• CN(C)C(=O)CSc1nc2cc(Cl)ccc2c(=O)n1CC1CCCO1 (centres unmarked) = 97.3

Query :: Query viability at 28.5 h, 10 µM for O=C(CSc1ncn[nH]1)Nc1ncccn1
Result :: 105

Query :: Query viability at 28.5 h, 10 µM for CC1CCc2c(sc(NC(=O)c3cnccn3)c2C(N)=O)C1 (centres unmarked)
Result :: 90.7

Query :: Query viability at 28.5 h, 10 µM for CC1CCc2c(C(=O)N3CCC4(C3)NC(=O)NC4=O)csc2C1 (centres unmarked)
Result :: 76.8

Query :: Query viability at 28.5 h, 10 µM for Cc1cnc(Cl)c2ncn([C@H]3C[C@@H](O)[C@@H](CO)O3)c12
Result :: 97.7

Query :: Query viability at 28.5 h, 10 µM for O=C(Cc1ccc(F)cc1F)Nc1ccc2cc[nH]c2c1
Result :: 102

Query :: Query viability at 28.5 h, 10 µM for CC1CCN(S(=O)(=O)c2cccc(C(=O)N3CCC(C(=O)O)CC3)c2)CC1
Result :: 87.4

Query :: Query viability at 28.5 h, 10 µM for CCOc1cc(OCC)cc(C(=O)N2CCCC3(CC2)CC(=O)c2ccc(C)cc2O3)c1 (centres unmarked)
Result :: 98.2

----------
- ASSAY COMMENT: in vitro
- SETUP CONDITIONS: human, hela cells, % viability
QUANTITY NAME: viability at 28.5 h, 10 µM (%)
Report as a plain number; the unit % is understood.

- COCC(=O)N1CCN(C(=O)N2CCOCC2)C[C@@H]1C(=O)OC [CBK289613]: 109
- CCCNCCc1ccc(NC(=O)NCCc2ccccc2)cc1 [CBK173873T]: 93.5

Query :: Query viability at 28.5 h, 10 µM for Cc1sc(NC(=O)c2cc(-c3ccncc3)nc3ccc(Cl)cc23)c(C#N)c1C [CBK267742]
Result :: 87.7

Query :: Query viability at 28.5 h, 10 µM for COc1ccc(C(=O)Nc2nsc(-c3ccccc3)n2)cc1 [CBK113233]
Result :: 97.2

Query :: Query viability at 28.5 h, 10 µM for COc1ccc(C(C)(C)C)cc1S(=O)(=O)NC1CC(C)(C)NC(C)(C)C1 [CBK267865]
Result :: 102

----------
# viability at 28.5 h, 10 µM listing for each entry below
- ASSAY COMMENT: in vitro
- SETUP CONDITIONS: human, hela cells, % viability
Report as a plain number; the unit % is understood.

* C[S+]([O-])c1ccc(-c2ccc(CN(C3CC3)C3CCN(c4ncccn4)CC3)cn2)cc1 (stereo not shown) | 90.2
* O=C(Nc1ccc(Cl)c(S(=O)(=O)N2CCCC2)c1)c1cnccn1 | 87.9
* Cc1ccc(C(=O)N2CN(C(=O)CNCC(C)C)CC2(C)C)cc1 [CBK089576C] | 96
* CSCCC(NC(=O)c1ccccc1NC(=O)c1ccc(C)cc1)C(=O)O (stereo not shown) | 94.1

Query :: Query viability at 28.5 h, 10 µM for COc1cc(Nc2nc(-c3ccco3)cn3ccnc23)cc(OC)c1OC
Result :: 95.2

Query :: Query viability at 28.5 h, 10 µM for CC(C)N1CCC[C@H]1c1nc(-c2ccc(-c3cncnc3)nc2)no1
Result :: 115
